STUDY_SYSTEM: T1, recombinant human SOD1 (biomol, Hamburg) (human, UniProt P00441 2-154, limits assumed)
T1 construct: Bought protein; also called recombinant human superoxide dismutase 1; Recombinant SOD1
T1 sequence (P00441 2-154 limits assumed): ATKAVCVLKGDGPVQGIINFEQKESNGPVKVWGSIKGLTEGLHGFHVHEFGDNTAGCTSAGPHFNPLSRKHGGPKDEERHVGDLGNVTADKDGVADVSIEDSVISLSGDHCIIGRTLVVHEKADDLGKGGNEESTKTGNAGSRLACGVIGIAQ
ASSAY_PROCEDURE: direct ELISA, recombinant human SOD1 coated at 3.3 µg/ml
The binders listed here are annotated with their EC50.
State just the number; it will be interpreted in nM.

Check out these entries, answers already filled in.
BINDER	OBSERVED_PROPERTY	VALUE
NI-204.10A8 (antibody, human IgG1, V domains shown) VH: EVQLVESGAEVKEPGSSVRVSCKTSGGSFNRHVITWVRQAPGQGLEWMGEIIPFFGTPKYAPKFQGRVTIIADASTSTFFLDVKSLTSEDTALYFCWIVVVSVVQRREDFWGQGILVTVSS VL: EIVLTQSPSSLSASVGDTVTITCRSSQNISNYLSWFQHKPGKAPRILVYAASTLQTGVPSRFSGRGSGTIFTLSITSLQSEDYATYYCQQNDKIPRTFGQGTKVEIK	EC50	2.7
NI-204.9F6 (antibody, human IgG1, V domains shown, also called NI-209.9F6) VH: EVQLVESGGGLVQPGGSLRLSCAVSGFTFDTFAMSWVRQAPGKGLEWVSAITASSSKTYYADSVKGRFTISRDNSRNTVYLRLSSLRADDTAVYFCARPKGAHSGLYIESAFDLWGPGTMVTVSS VL: SYVLTQPPSVSVSAGQTASITCSADMLGDTYVSWYQKRPGQSPVLLIYQDSKRPSEIPERFSGSSSEDTATLTITGTQALDEAAYYCQVWDRRTTTYVFGPGTEVTVL	EC50	105
NI-204.10D12 (antibody, V domains shown) VH: EVQLVESGGDLVRPGGSLRLSCVASGFTFSNYWMHWVRQAPGQRPVWVSRTNTDGRNTAYADYAKGRFTISRDNAKSTLYLQLNSLRAEDTAVYFCARLRRNVADQITHNYYMDVWGKGTLVTVSS VL: EIVLTQSPGSLAVSLGERATINCKSSQTVLYNNKNYLAWYQQKPGQPPKLLISWASSRESGVPDRFSGSGSGTDFTLTISSLQAEDVAVYYCQHYYGTPVTFGGGTKVEIK	EC50	10

Here's the next entry for you.
Input NI-204.12G7 (antibody, human IgG1, V domains shown) VH: EVQLVESGAEVKKPGASVTLSCKASGYTFTAYYIHWVRQAREQGLEWMGVINPSTGTTFYAQNFPDRVSVTRDTSTSTVFMELHNLKSEDTAVYYCARAISEHGSGSYSPYYWGQGTLVTVSS VL: SYVLTQPPSVSVSLGQMAAITCSGEALPKKYGYWYQQKPGQVPVLLIYRDVERPSGVPDRFSGSSSGTMVTLTISGVQAEDEADYYCLSADSSGTWVFGGGTKLTVL . Output EC50: 0.4
